targetSystem: D-Amino acid oxidase from porcine kidney (DAAO) (Sus scrofa, UniProt P00371)
Construct: gene DAO; native enzyme from porcine kidney, Sigma-Aldrich
Sequence (P00371 whole entry): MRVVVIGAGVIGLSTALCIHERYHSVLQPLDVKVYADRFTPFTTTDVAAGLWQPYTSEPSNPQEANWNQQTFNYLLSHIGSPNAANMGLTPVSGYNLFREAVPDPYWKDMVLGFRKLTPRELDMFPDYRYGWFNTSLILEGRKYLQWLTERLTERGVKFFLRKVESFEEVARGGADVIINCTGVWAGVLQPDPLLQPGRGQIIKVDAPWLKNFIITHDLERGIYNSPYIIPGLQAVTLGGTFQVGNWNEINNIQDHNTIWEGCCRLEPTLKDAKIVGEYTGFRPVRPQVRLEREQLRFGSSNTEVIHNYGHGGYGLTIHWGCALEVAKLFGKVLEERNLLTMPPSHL
protocolDetails: colorimetric, […],4-dinitrophenylhydrazine detection of keto acid
Format: biochemical
experimentalParameters: read-out: DAAO Inhibition [IC50] ^c/[%] ^d
Please assign not met whenever IC50 is at or above 2000 µM, and met whenever it is below.

compound="O=C(O)C1CCc2cc(O)c(O)cc2C=N1 (racemic)" class=met
compound="O=C(O)C1Cc2cc(O)c(O)c(Cl)c2C=N1 (racemic)" class=met
compound="O=C(O)C1Cc2c(cc(O)c(O)c2Cl)C=N1 (racemic)" class=met
compound="O=C(O)c1ccccc1 [Benzoic acid, reference compound]" class="not met"
compound="O=C(O)C1Cc2cc(O)c(O)c(I)c2C=N1 (racemic)" class="not met"

---

targetSystem: D-Amino acid oxidase from porcine kidney (DAAO) (Sus scrofa)
Construct: gene DAO; native enzyme from porcine kidney, Sigma-Aldrich
protocolDetails: colorimetric, […],4-dinitrophenylhydrazine detection of keto acid
Assay type: biochemical
experimentalParameters: 3570 µM; D-Ala substrate, 0.2 M Tris-HCl pH 8.2, 37 °C, 30 min; 3.57 mM compound
Please assign Not satisfied whenever DAAO Inhibition [IC50] ^c/[%] ^d is at or above 10%, and Satisfied whenever it is below.

compound="O=C(O)C1Cc2c(Cl)c(O)cc(O)c2C=N1 (racemic) [5k]" class=Satisfied
compound="O=C(O)C1Cc2cc(O)c(Br)c(O)c2C=N1 (racemic) [5j]" class="Not satisfied"
compound="C[C@@]1(C(=O)O)Cc2cc(O)c(O)cc2C=N1 [compound 13]" class=Satisfied
compound="O=C(O)C1Cc2ccc(Br)c(O)c2C=N1 (racemic) [5b]" class="Not satisfied"
compound="O=C(O)C1Cc2cc(O)c(O)cc2C=N1 (racemic) [5e]" class=Satisfied

---

targetSystem: butyrylcholinesterase from equine serum (BuChE) (Equus caballus, UniProt P81908)
Sequence (P81908 whole entry): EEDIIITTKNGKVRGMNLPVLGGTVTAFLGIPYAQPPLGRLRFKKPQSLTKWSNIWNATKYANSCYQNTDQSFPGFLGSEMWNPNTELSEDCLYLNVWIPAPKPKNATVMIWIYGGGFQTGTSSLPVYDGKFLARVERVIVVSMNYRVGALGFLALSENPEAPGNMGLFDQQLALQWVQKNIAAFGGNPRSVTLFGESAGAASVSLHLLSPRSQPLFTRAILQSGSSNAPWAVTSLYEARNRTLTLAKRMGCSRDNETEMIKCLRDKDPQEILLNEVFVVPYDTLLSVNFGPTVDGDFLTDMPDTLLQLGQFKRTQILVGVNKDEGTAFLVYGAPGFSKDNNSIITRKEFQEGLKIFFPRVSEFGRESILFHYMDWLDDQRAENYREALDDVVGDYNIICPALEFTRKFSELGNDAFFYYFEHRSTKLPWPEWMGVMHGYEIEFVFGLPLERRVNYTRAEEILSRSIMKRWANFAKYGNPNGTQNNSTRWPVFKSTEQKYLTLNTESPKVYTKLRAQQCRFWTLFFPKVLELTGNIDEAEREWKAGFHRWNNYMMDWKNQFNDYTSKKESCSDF
protocolDetails: biochemical
pIC50: −log10 of the molar value.
Items are presented alongside their recorded pIC50.
measuredAttribute: pIC50

compound="CC1(C(=O)O)Cc2cc(O)c(O)cc2C2C(Cl)C(=O)N21 (stereo not drawn) [compound 15]" assayvalue=2.76
compound="O=C(O)C1Cc2c(Cl)c(O)cc(O)c2C=N1 (racemic) [5k]" assayvalue=2.85
compound="O=C(O)C1Cc2cc(O)c(Br)c(O)c2C=N1 (racemic) [5j]" assayvalue=3.19
compound="C[C@@]1(C(=O)O)Cc2cc(O)c(O)cc2C=N1 [compound 13]" assayvalue=3.21
compound="O=C(O)C1Cc2cc(O)c(O)cc2C=N1 (racemic) [5e]" assayvalue=3.43
compound="O=C(O)C1Cc2c(cc(O)c(O)c2Cl)C=N1 (racemic) [5l]" assayvalue=3.77

---

targetSystem: acetylcholinesterase from Electrophorus electricus (AChE) (Electrophorus electricus)
Sequence (O42275 24-633): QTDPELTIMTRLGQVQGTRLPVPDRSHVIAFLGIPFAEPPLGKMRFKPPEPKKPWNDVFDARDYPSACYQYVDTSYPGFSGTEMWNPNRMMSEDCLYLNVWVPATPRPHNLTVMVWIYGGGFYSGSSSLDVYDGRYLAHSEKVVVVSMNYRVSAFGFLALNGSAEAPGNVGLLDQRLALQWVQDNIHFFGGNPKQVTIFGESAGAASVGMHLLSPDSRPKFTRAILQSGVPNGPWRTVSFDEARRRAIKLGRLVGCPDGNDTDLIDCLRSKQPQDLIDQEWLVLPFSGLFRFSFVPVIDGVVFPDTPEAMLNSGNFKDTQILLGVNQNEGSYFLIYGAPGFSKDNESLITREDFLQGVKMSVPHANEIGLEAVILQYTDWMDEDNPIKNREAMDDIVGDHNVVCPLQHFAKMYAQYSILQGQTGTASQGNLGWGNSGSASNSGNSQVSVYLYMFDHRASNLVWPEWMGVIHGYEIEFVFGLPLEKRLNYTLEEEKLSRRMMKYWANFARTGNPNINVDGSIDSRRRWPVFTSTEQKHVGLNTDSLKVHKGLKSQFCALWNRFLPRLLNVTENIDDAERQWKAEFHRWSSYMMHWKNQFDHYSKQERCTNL
Please assign F whenever IC50 is at or above 800 µM, and T whenever it is below.

compound="O=C(O)C1Cc2cc(O)c(O)cc2C=N1 (racemic)" targetsystem="acetylcholinesterase from Electrophorus electricus (AChE) (Electrophorus electricus)" class=T
compound="O=C(O)C1Cc2cc(O)c(Br)c(O)c2C=N1 (racemic)" targetsystem="acetylcholinesterase from Electrophorus electricus (AChE) (Electrophorus electricus)" class=T
compound="O=C(O)C1CCc2cc(O)c(O)cc2C=N1 (racemic)" targetsystem="acetylcholinesterase from Electrophorus electricus (AChE) (Electrophorus electricus)" class=F
compound="O=C(O)C1Cc2c(O)c(O)cc(Br)c2C=N1 (racemic)" targetsystem="acetylcholinesterase from Electrophorus electricus (AChE) (Electrophorus electricus)" class=T
compound="O=C(O)C1Cc2c(Cl)c(O)cc(O)c2C=N1 (racemic)" targetsystem="acetylcholinesterase from Electrophorus electricus (AChE) (Electrophorus electricus)" class=T
compound=C[C@@]1(C(=O)O)Cc2cc(O)c(O)cc2C=N1 targetsystem="acetylcholinesterase from Electrophorus electricus (AChE) (Electrophorus electricus)" class=F
